Can you tell me EC50 (nM), phagocytosis against HT-29 cells for the items I'm about to list?
# system under test: T1, human CD24 (human, UniProt P25063 27-59, heavily glycosylated, GPI-anchored (as described in the background))
# T1 chain (looked up): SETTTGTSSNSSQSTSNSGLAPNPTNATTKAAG
# experiment: cell-based or functional assay
Give the value, in units of nM, as a plain number.

# input binder: ch81A1F8-hIgG4 (antibody, V domains shown, chimeric; also called chAb81A1F8; ch81A1F8-IgG4) VH: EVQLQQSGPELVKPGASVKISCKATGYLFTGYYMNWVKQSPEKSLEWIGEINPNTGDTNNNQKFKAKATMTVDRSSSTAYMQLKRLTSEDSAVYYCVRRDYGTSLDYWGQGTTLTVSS VL: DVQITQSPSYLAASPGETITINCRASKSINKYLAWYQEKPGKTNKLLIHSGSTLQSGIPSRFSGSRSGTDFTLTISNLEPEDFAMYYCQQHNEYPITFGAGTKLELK ; wanted: its EC50 (nM), phagocytosis against HT-29 cells
0.098

Requested field: EC50 (nM), phagocytosis against HT-29 cells. Item: ch100F2E3-hIgG4 (antibody, V domains shown, chimeric) VH: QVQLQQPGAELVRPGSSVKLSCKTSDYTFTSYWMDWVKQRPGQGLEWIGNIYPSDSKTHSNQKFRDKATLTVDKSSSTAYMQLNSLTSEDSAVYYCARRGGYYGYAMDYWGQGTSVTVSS VL: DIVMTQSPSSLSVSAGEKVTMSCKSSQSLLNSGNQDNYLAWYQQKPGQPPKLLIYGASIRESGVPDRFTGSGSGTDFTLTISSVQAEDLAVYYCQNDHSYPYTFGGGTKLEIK
1.9

The measurements presented in this section are drawn from patent US20240052052A1.
